- Method description: Half life in mouse liver microsomes
- Assay type: ADME, Microsome
Assay metric: half-life

The recorded half-life for CC1=C2CC(C)(C)/C=C/C(=O)/C(C)=C\C3=C[C@H](C)C[C@]3(O2)C1=O is 5.4 min

---

- Test system: Plasmodium falciparum
- Method description: Antimalarial activity against chloroquine-sensitive Plasmodium falciparum 3D7 infected in O-positive erythrocytes assessed as parasite growth inhibition after 72 hrs by DNA staining-based assay
- Type: functional, organism-based
- Particulars: 3D7, 72 h
Please go through the items and note down their EC50.
Express it in µM; write the number only.

EC50 value, target or system Plasmodium falciparum, for C=C1CC[C@H]2[C@@H](c3c(C)c(OC(C)=O)c4c(c31)C(=O)C(C)C4)C2(C)C (stereo partly drawn) : 15

EC50 value, target or system Plasmodium falciparum, for CC(=O)O[C@H]1/C=C/C(C)(C)CC2=C(C)[C@@H](OC(C)=O)[C@]3(C[C@@H](C)C=C3/C=C\1C)O2 : 5.68

EC50 value, target or system Plasmodium falciparum, for CC(=O)O[C@H]1CC[C@]2(C)[C@H]3CC[C@]4(C)C(=CC[C@@]5(C(=O)O)CCC(C)(C)C[C@H]54)[C@]3(C)CC[C@H]2C1(C)C [ACETYL ALEURITOLIC ACID] : 15

---

Please go through the items and note down their pEC50.
- Tested on: Plasmodium falciparum
- Method description: Antimalarial activity against chloroquine-sensitive Plasmodium falciparum 3D7 infected in O-positive erythrocytes assessed as parasite growth inhibition after 72 hrs by DNA staining-based assay
- Type: functional, organism-based
- Particulars: 3D7, 72 h
In simple prose, pEC50 is minus the logarithm base ten of a concentration in moles per litre.

The recorded pEC50 for C/C1=C/[C@]23O[C@H]2[C@H](C)C=C3C(=O)[C@@](C)(O)C(=O)CC(C)(C)/C=C/C1=O is 4.82

The recorded pEC50 for C/C1=C/C2=C[C@H](C)C[C@@]23O[C@]2(CC(C)(C)C[C@@H]2[C@@]1(O)C#N)[C@@H](C)C3=O is 4.82

The recorded pEC50 for CC1=C2CC(C)(C)/C(c3ccccc3)=C/C(=O)/C(C)=C\C3=C[C@H](C)C[C@]3(O2)C1=O is 4.82

The recorded pEC50 for C/C1=C/C2=C[C@H](C)C[C@@]23O[C@]2(CC(C)(C)C4CC1(ON4)O2)C(C)C3=O (stereo partly drawn) is 4.82

The recorded pEC50 for CC1=C2CC(C)(C)CCC(=O)C(C)CC3C[C@H](C)C[C@]3(O2)C1=O (mixture of isomers) is 4.82

The recorded pEC50 for C[C@@H]1CC[C@H]2CC3=C(C(=O)O)CC[C@@]31C2(C)C is 4.82

The recorded pEC50 for C[C@@H]1C[C@@]23O[C@@]45CC(C)(C)[C@@H](Sc6ccccc6)[C@@H]4C(=O)C(C)(C=C2[C@H]1Sc1ccccc1)[C@]3(O)[C@@H]5C (stereo partly drawn) is 5.19

The recorded pEC50 for CC(=O)O[C@@H]1/C=C/C(C)(C)CC2=C(C)C(=O)[C@]3(C[C@@H](C)C=C3/C=C\1C)O2 is 5.79

The recorded pEC50 for CC1=C2CC(C)(C)/C=C/C(=O)/C(C)=C\C3=C[C@H](C)C[C@]3(O2)C1=O is 4.82

The recorded pEC50 for CC1=C2CC(C)(C)CCC(=O)C(C)CC3=C[C@H](C)C[C@]3(O2)C1=O (mixture of isomers) is 4.82

The recorded pEC50 for CO[C@H]1[C@@H]2C(=O)/C(C)=C\C3=C[C@H](C)C[C@@]34O[C@]2(CC1(C)C)[C@@H](C)C4=O is 4.82

The recorded pEC50 for CC1=C2CC(C)(C)/C=C/C(=O)/C(C)=C\C3=C[C@H](C)C[C@]3(O2)[C@]1(C)O is 6.20

The recorded pEC50 for C/C1=C/C2=C[C@H](C)C[C@@]23O[C@]2(CC(C)(C)[C@@H](Br)[C@@H]2C1=O)[C@](C)(Br)C3=O is 4.82

---

- Method description: Plasma protein binding in mouse
- Assay type: ADME, cell-free
- Particulars: read-out: PPB (converted)
Assay metric: fraction unbound

The recorded fraction unbound for CC1=C2CC(C)(C)/C=C/C(=O)/C(C)=C\C3=C[C@H](C)C[C@]3(O2)C1=O [JATROPHONE] is 0.26

---

- Method description: Solubility of the compound
- Type: physicochemical
Assay metric: solubility (µg/mL)
Express it in µg/mL; write the number only.

The recorded solubility for CC1=C2CC(C)(C)/C(c3ccc(C(F)(F)F)cc3)=C/C(=O)/C(C)=C\C3=C[C@H](C)C[C@]3(O2)C1=O is 17

---

- Method description: Solubility of the compound at pH 3 to 7
- Type: physicochemical
- Particulars: buffer
Assay metric: solubility (µg/mL)
Express it in µg/mL; write the number only.

The recorded solubility for CC1=C2CC(C)(C)/C=C/C(=O)/C(C)=C\C3=C[C@H](C)C[C@]3(O2)C1=O [JATROPHONE] is 20

---

Please go through the items and note down their Papp.
- Method description: Permeability of the compound by PAMPA
- Format: ADME
- Particulars: read-out: permeability
Express it in ×10⁻⁶ cm/s; write the number only.

The recorded Papp for CC1=C2CC(C)(C)/C(c3ccc(C(F)(F)F)cc3)=C/C(=O)/C(C)=C\C3=C[C@H](C)C[C@]3(O2)C1=O is 106

The recorded Papp for CC1=C2CC(C)(C)/C=C/C(=O)/C(C)=C\C3=C[C@H](C)C[C@]3(O2)C1=O is 525

---

- System: Plasmodium falciparum
- Method description: Antimalarial activity against chloroquine-sensitive Plasmodium falciparum 3D7 infected in O-positive erythrocytes assessed as parasite growth inhibition after 72 hrs by DNA staining-based assay
- Format: functional, organism-based
- Particulars: 3D7, 72 h
Assay metric: EC50 (µM)
Express it in µM; write the number only.

The recorded EC50 for C[C@@H]1CC[C@H]2CC3=C(CO)CC[C@@]31C2(C)C is 15

The recorded EC50 for CC1=C2CC(C)(C)/C=C/[C@H](O)/C(C)=C\C3=C[C@H](C)C[C@]3(O2)C1=O is 9.23

The recorded EC50 for COC(=O)C1=C2C[C@@H]3CC[C@@H](C)[C@]2(CC1)C3(C)C is 15

The recorded EC50 for C/C1=C/C2=C[C@H](C)C[C@@]23O[C@]2(CC(C)(C)[C@@H](O)[C@@H]2C1=O)[C@@H](C)C3=O is 15

The recorded EC50 for CC1=C2CC(C)(C)/C=C/C(=O)/C(C)=C\C3=C[C@H](C)C[C@]3(O2)[C@@]1(O)C#N is 15

The recorded EC50 for C/C1=C/C2=C[C@H](C)C[C@@]23O[C@]2(CC(C)(C)[C@@H](OC(C)C)[C@@H]2C1=O)[C@@H](C)C3=O is 15

The recorded EC50 for C[C@@H]1CC[C@H]2CC3C(=O)CC[C@@]31C2(C)C (stereo partly drawn) is 15

The recorded EC50 for C/C1=C/C2=C[C@H](C)CC2(Br)C(=O)[C@@]2(C)O[C@@H]([C@@H](Br)C1=O)C(C)(C)CC2=O (stereo partly drawn) is 15

The recorded EC50 for CC1=C2CC(C)(C)/C(c3ccc(C(F)(F)F)cc3)=C/C(=O)/C(C)=C\C3=C[C@H](C)C[C@]3(O2)C1=O is 6.08

The recorded EC50 for CC1=C2CC(C)(C)[C@@H](C)CC(=O)/C(C)=C\C3=C[C@H](C)C[C@]3(O2)C1=O is 15

The recorded EC50 for CC1=C2CC(C)(C)[C@@H]3C=C(OC3)/C(C)=C\C3=C[C@H](C)C[C@]3(O2)C1=O is 15

The recorded EC50 for CC1=C2CC(C)(C)/C=C/[C@H](OC(=S)n3ccnc3)/C(C)=C\C3=C[C@H](C)C[C@]3(O2)C1=O is 5.67

The recorded EC50 for C[C@@H]1CC[C@H]2CC3=C(C=O)CC[C@@]31C2(C)C is 15
